Target: Histone deacetylase 1 (Homo sapiens) (UniProt Q13547)
Sequence (Q13547 whole entry): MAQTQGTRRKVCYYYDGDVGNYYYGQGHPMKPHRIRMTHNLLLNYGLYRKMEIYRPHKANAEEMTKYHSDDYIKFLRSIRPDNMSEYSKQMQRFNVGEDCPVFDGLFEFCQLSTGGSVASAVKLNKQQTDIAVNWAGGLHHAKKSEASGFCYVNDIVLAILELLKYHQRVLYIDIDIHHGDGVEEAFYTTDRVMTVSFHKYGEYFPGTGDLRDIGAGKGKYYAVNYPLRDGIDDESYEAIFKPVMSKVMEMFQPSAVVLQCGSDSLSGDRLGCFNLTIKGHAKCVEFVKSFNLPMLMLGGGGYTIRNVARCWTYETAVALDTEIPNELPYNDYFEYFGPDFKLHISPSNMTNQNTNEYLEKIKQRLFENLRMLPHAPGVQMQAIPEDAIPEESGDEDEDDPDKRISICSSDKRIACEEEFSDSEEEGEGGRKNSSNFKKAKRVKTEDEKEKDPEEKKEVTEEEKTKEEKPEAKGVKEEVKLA
Assay: Inhibition of HDAC1 in human U937 cells at 5 uM […]
Assay type: cell-based
Conditions: U-937
Calls of active or inactive are those of the source. The rule behind the calls is not given here.
MEASURED_PROPERTY: inhibition

Recorded inhibition, per entry:
1. Cn1cc(C/C(=N\O)C(=O)NCCSSCCNC(=O)/C(Cc2cn(C)c3ccc(Br)cc23)=N/O)c2cc(Br)ccc21 Active
2. O=C(NCCSSCCNC(=O)/C(Cc1c[nH]c2c(Br)cccc12)=N/O)/C(Cc1c[nH]c2c(Br)cccc12)=N/O 60%
3. O=C(NCCSSCCNC(=O)/C(Cc1c[nH]c2ccc(I)cc12)=N/O)/C(Cc1c[nH]c2ccc(I)cc12)=N/O Active
4. O=C(NCCSSCCNC(=O)/C(Cc1c[nH]c2ccc(Cl)cc12)=N/O)/C(Cc1c[nH]c2ccc(Cl)cc12)=N/O Active
5. COc1ccc2[nH]cc(C/C(=N\O)C(=O)NCCSSCCNC(=O)/C(Cc3c[nH]c4ccc(OC)cc34)=N/O)c2c1 Active
6. O=C(NCCSSCCNC(=O)/C(Cc1c[nH]c2ccc(F)cc12)=N/O)/C(Cc1c[nH]c2ccc(F)cc12)=N/O Active

Please examine the following record next.
Query: Recorded inhibition for O=C(NCCSSCCNC(=O)/C(Cc1c[nH]c2ccc(Br)cc12)=N/O)/C(Cc1c[nH]c2ccc(Br)cc12)=N/O with Histone deacetylase 1 (Homo sapiens) (UniProt Q13547), please?
Result: 60%
